Experiment: Brain (striatum) exposure levels after oral dosing, LC/MS/MS
Assay type: in vivo
Conditions: male, Sprague Dawley (Harlan), rat striatum, oral dose 30 mg/kg
propertyMeasured: concentration at 5.5 h (ng/g)
State just the number; it will be interpreted in ng/g.

Reported concentration at 5.5 h ( Cc1cc(C)cc([C@@H]2CCCN2Cc2ccc(Oc3ccc(C(N)=O)cc3F)cc2)c1 (single isomer, unassigned) ) = 266

----------
Assay: Brain (striatum) exposure levels after oral dosing, LC/MS/MS
Type: in vivo
Details: male, Sprague Dawley (Harlan), rat striatum, oral dose 10 mg/kg
propertyMeasured: concentration at 5.5 h (ng/g)
The answer is to be given in ng/g; state only the numeric part.

Form field concentration at 5.5 h, entry Cc1cc(C)cc([C@@H]2CCCN2Cc2ccc(Oc3ccc(C(N)=O)cc3F)cc2)c1 (single isomer, unassigned) : 171
